meta.source: the supplement of paper PMC11246515

Assay: total protein half-life in vivo (active degradation + dilution); higher = more stable protein
Condition context: E. coli NCM3722 delta-clpP; growth: N-lim chemostat; doubling time 6 h
Metric: total protein half-life in vivo
Please answer using the number first and the unit second.

Sequence text	total protein half-life in vivo
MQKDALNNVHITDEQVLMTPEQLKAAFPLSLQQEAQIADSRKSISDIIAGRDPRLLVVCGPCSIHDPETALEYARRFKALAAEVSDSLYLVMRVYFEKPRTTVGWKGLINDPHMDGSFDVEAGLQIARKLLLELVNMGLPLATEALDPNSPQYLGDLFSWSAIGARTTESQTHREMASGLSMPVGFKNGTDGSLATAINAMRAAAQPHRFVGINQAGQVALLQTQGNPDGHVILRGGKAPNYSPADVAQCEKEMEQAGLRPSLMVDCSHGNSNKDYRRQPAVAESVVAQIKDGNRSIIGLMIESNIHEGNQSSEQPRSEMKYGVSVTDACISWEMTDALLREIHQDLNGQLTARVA	1.05 h
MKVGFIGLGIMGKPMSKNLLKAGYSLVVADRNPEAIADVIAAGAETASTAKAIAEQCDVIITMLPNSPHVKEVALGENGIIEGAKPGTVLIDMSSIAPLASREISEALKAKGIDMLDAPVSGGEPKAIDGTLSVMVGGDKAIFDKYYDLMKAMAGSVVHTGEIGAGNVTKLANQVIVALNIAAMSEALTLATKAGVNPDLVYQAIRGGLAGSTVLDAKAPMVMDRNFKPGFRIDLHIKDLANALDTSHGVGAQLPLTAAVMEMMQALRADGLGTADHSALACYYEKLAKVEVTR [P0ABQ2]	3.02 h

// next entry
Recorded total protein half-life in vivo (sequence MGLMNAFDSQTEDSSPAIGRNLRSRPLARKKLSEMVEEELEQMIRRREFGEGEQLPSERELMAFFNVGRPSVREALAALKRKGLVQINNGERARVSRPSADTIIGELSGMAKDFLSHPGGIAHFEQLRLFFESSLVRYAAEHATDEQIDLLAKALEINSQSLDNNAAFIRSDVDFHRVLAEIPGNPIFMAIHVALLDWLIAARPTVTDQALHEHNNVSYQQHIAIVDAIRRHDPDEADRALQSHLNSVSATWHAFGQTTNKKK [P0A8W0] ): 5.05 h

----------
Assay: total protein half-life in vivo (active degradation + dilution); higher = more stable protein
Condition context: wild type E. coli NCM3722; growth: P-lim chemostat; doubling time 6 h
Metric: total protein half-life in vivo (h)
Give just the numeric value; h need not be written.

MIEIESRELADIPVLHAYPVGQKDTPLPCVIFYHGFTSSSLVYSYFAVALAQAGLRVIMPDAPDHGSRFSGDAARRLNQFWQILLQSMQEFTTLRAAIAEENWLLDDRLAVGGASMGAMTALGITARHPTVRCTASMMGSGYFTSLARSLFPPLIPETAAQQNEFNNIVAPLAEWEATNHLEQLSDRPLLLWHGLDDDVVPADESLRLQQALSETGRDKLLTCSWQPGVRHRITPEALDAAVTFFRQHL 5.95
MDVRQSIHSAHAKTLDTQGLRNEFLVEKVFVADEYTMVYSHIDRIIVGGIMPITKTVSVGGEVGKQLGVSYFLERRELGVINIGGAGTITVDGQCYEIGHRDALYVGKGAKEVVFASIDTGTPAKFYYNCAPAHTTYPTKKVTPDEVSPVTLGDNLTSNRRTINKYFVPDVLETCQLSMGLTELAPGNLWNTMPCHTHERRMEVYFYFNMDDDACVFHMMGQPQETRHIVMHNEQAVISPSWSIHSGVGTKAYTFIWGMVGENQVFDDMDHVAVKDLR 5.56

// next entry
Recorded total protein half-life in vivo (sequence `MANLSGYNFAYLDEQTKRMIRRAILKAVAIPGYQVPFGGREMPMPYGWGTGGIQLTASVIGESDVLKVIDQGADDTTNAVSIRNFFKRVTGVNTTERTDDATVIQTRHRIPETPLTEDQIIIFQVPIPEPLRFIEPRETETRTMHALEEYGVMQVKLYEDIARFGHIATTYAYPVKVNGRYVMDPSPIPKFDNPKMDMMPALQLFGAGREKRIYAVPPFTRVESLDFDDHPFTVQQWDEPCAICGSTHSYLDEVVLDDAGNRMFVCSDTDYCRQQSEAKNQ` ): 0.723
